Recorded values, source patent US20230295119A1.

# system: TYK2 JH2 domain (Homo sapiens (Human), UniProt P29597)
# Sequence (P29597 589-875): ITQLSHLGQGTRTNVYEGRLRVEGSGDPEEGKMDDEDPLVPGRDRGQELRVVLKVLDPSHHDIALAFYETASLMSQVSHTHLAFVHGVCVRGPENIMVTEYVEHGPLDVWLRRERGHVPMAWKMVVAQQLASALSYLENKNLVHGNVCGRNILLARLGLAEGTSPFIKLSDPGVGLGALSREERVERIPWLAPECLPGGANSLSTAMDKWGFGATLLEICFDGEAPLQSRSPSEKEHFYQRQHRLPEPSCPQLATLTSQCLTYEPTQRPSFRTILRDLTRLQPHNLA
# measurement-protocol: TYK2 JH2 NanoBRET assay
# Type: binding
# experimental-parameters: Table 20, read-out: TYK2 IC50
pIC50: −log10 of the molar value.
value-kind: pIC50

What does the data say about its pIC50? Entry: "CCC(=O)c1cnc(Nc2ncc(CNC)cc2F)cc1Nc1cccc(-c2ncn(C)n2)c1OC"
7.30 to 8.30

Fill blank: measured pIC50 of the molecule CCC(=O)c1cnc(Nc2ccc(OC3CCN(C)CC3)nn2)cc1Nc1cccc(-c2ncn(C)n2)c1OC [Compound 18EE] is ____.
> 8.30

Dear colleague, I am looking for the recorded pIC50 of the following molecule: CCC(=O)c1cnc(NC(=O)[C@@H]2C[C@H]2CS(C)(=O)=O)cc1Nc1cccc(-c2ncn(C)n2)c1OC [Compound 22N]
6.30 to 7.30

Fill in the blank: the reported pIC50 of "CCC(=O)c1cnc(Nc2nc(CN(C)C)ccc2F)cc1Nc1cccc(-c2ncn(C)n2)c1OC" is ____.
6.30 to 7.30
